Cited source for all entries: patent US10064929B2

# target_system: HLA-A*02:01 (Homo sapiens, UniProt P04439, D140Y/D185E/D98H/E176V/E277Q/G131W/G231S/I119V/I121R/I166T/I218V/L300P/L318F/N151K/N90K/P208A/P217A/Q86G/Q94H/R138H/R169H/T345S)
# assay_procedure: MHC binding assay: UV-ligand exchange with β2m ELISA
# cond: binding to HLA-A*02:01
readout: Peptide Exchange (MHC class I binding score, peptide exchange yield)

Solved cases below.
The reported Peptide Exchange (MHC class I binding score, peptide exchange yield) of the sequence SLAWDVPAA (listed as Homo sapiens) [SEQ ID NO: 26] was “+++” (≥50 = +++)

The reported Peptide Exchange (MHC class I binding score, peptide exchange yield) of the sequence ILFDVVVFL (listed as Homo sapiens) [SEQ ID NO: 25] was “++” (≥20% = ++)

The reported Peptide Exchange (MHC class I binding score, peptide exchange yield) of the sequence TIASSIEKA (listed as Homo sapiens) [SEQ ID NO: 17] was “++” (≥20% = ++)

The reported Peptide Exchange (MHC class I binding score, peptide exchange yield) of the sequence ALTALQNYL (listed as Homo sapiens) [SEQ ID NO: 6] was “+++” (≥50 = +++)

Continuing:
The reported Peptide Exchange (MHC class I binding score, peptide exchange yield) of the sequence FLDEEVKLI (listed as Homo sapiens) [SEQ ID NO: 43] was “+++” (≥50 = +++)

The reported Peptide Exchange (MHC class I binding score, peptide exchange yield) of the sequence SLNDQGYLL (listed as Homo sapiens) [SEQ ID NO: 41] was “+++” (≥50 = +++)
